Kindly state Plant response rating, Velvetleaf for each of the entries shown.
- Test system: velvetleaf
- Method description: Test B pre/postemergence velvetleaf
- Assay type: in vivo, Abutilon theophrasti
- Run conditions: Preemergence, Rate 500 g/ha; scale of 0 to 10 where 0 is no effect and 10 is complete control
Answers are plain numbers.

// solved cases for Plant response rating, Velvetleaf follow
Molecule	Plant response rating, Velvetleaf
CCC(C)n1c(=O)on(C(=O)N(c2ccccc2)C(C)C)c1=O (stereo not drawn)	10
C=C(C)Cn1c(=O)on(C(=O)N(c2ccccc2)C(C)C)c1=O	8

Turning to the following molecule.
Quick check: Plant response rating, Velvetleaf of CC(C)N(C(=O)n1oc(=O)n(CC[N+](=O)[O-])c1=O)c1ccc(F)cc1F ?
0

====

- System: blackgrass
- Method description: Test B pre/postemergence blackgrass
- Type: in vivo, Alopecurus myosuroides
- Run conditions: Postemergence, Rate 62 g/ha; scale 0 to 10, 0 is no effect, 10 is complete control
Kindly state Plant response rating, Blackgrass for each of the entries shown.
Answers are plain numbers.

Compound	Plant response rating, Blackgrass
CC(C)N(C(=O)n1oc(=O)n(CSC#N)c1=O)c1ccc(F)cc1	0

// each listed compound needs a value for Plant response rating, Blackgrass
1. CC(C)N(C(=O)n1oc(=O)n(C[C@H](C)Cl)c1=O)c1ccc(Cl)cc1
2. C#CC(C)n1c(=O)on(C(=O)N(c2ccc(F)cc2F)C(C)C)c1=O (racemic)
3. CC(C)N(C(=O)n1oc(=O)n(CC2CCCCO2)c1=O)c1ccccc1 (stereo not shown)
4. CC(C)N(C(=O)n1oc(=O)n(CC(F)F)c1=O)c1ccc(F)cc1
5. CC[C@H](C)n1c(=O)on(C(=O)N(c2ccc(Cl)cc2)C(C)C)c1=O
6. CC(C)N(C(=O)n1oc(=O)n(CCCCCl)c1=O)c1ccccc1

5
6
1
5
4
4

====

- Tested on: morningglory
- Method description: Test B pre/postemergence morningglory
- Assay type: in vivo, Ipomoea hederacea
- Run conditions: Postemergence, Rate 62 g/ha; scale 0 to 10, 0 is no effect, 10 is complete control
Value kind: Morningglory plant response rating

// solved cases for Morningglory plant response rating follow
Smiles	Morningglory plant response rating
Cc1nn(C)c(Cl)c1-n1c(=O)on(C(=O)N(c2ccc(F)cc2F)C(C)C)c1=O	1
CCN(C(=O)n1oc(=O)n(-c2c(C)cccc2C)c1=O)C1CCCCC1	0
Cc1ccccc1Cn1c(=O)on(C(=O)N(c2ccc(F)cc2F)C(C)C)c1=O	4
Cc1ccccc1-n1c(=O)on(C(=O)N(c2cc(F)cc(F)c2)C(C)C)c1=O	0
Cc1ccccc1-n1c(=O)on(C(=O)N(c2ccc(C(F)(F)F)cc2)C(C)C)c1=O	0

Turning to the following molecule.
Enter reported Morningglory plant response rating observed with morningglory for Cc1cc(C)c(-n2c(=O)on(C(=O)N(c3ccc(F)cc3)C(C)C)c2=O)c(C)c1
1

====

- Tested on: corn
- Method description: Test B pre/postemergence corn
- Assay type: in vivo, Zea mays
- Run conditions: Rate 500 g/ha, Preemergence; scale 0 to 10 (0 no effect, 10 complete control)
Value kind: Corn plant response rating
Give bare numbers.

Compound	Corn plant response rating
COC(=O)C(c1ccccc1)n1c(=O)on(C(=O)N(c2ccc(Cl)cc2)C(C)C)c1=O (stereo not drawn)	0
CC(C)N(C(=O)n1oc(=O)n(CCCCl)c1=O)c1ccc(Cl)cc1	0
CC(C)N(C(=O)n1oc(=O)n(C[C@H](C)Cl)c1=O)c1ccccc1	9
CC(C)N(C(=O)n1oc(=O)n(CCCCCl)c1=O)c1ccccc1	4
CON=CC(C)n1c(=O)on(C(=O)N(c2ccccc2)C(C)C)c1=O (stereo not drawn)	9

Turning to the following compound.
Quick check: Corn plant response rating of COC(=O)C(c1ccccc1)n1c(=O)on(C(=O)N(c2ccccc2)C(C)C)c1=O (stereo not drawn) ?
0

====

Kindly state Soybean plant response rating for each of the entries shown.
- Test system: soybean
- Method description: Test B pre/postemergence soybean
- Format: in vivo, Glycine max
- Run conditions: Rate 62 g/ha, Postemergence; scale of 0 to 10 where 0 is no effect and 10 is complete control
One number for each entry.

Smiles	Experimental system	Soybean plant response rating
CC(C)N(C(=O)n1oc(=O)n(C(C)C)c1=O)c1ccc(F)cc1	soybean	5
CC(C)N(C(=O)n1oc(=O)n(C2CCCCC2)c1=O)c1ccc(F)cc1F	soybean	1
CCn1c(=O)on(C(=O)N(c2ccccc2)C(C)C)c1=O	soybean	2
CC(C)N(C(=O)n1oc(=O)n(CCC#N)c1=O)c1ccc(F)cc1	soybean	1
CCCn1c(=O)on(C(=O)N(c2ccc(F)cc2F)C(C)C)c1=O	soybean	1
Cc1nc(C)c(Cn2c(=O)on(C(=O)N(c3ccc(F)cc3)C(C)C)c2=O)s1	soybean	3

Turning to the following molecule.
Quick check: Soybean plant response rating of Cc1nsc(Cl)c1Cn1c(=O)on(C(=O)N(c2ccccc2)C(C)C)c1=O ?
2

====

- System: crabgrass
- Method description: Test B pre/postemergence crabgrass
- Assay type: in vivo, Digitaria sanguinalis
- Run conditions: Postemergence, Rate 125 g/ha; scale of 0 to 10 where 0 is no effect and 10 is complete control
- Description: […] At the same time, these crop and weed species were also treated with postemergence applications of test chemicals formulated in the same manner. […] Treated plants and controls were maintained in a greenhouse for twelve to sixteen days, after which all species were compared to controls and visually evaluated. […]
Value kind: Crabgrass plant response rating
Numbers only.

// solved cases for Crabgrass plant response rating follow
Compound	Crabgrass plant response rating
CC(C)c1noc(C(C)C)c1-n1c(=O)on(C(=O)N(c2ccc(F)cc2)C(C)C)c1=O	0
CC(C)N(C(=O)n1oc(=O)n(CC2CCCCO2)c1=O)c1ccc(Cl)cc1 (stereo not drawn)	1

Quick check: Crabgrass plant response rating of C#CC(C)n1c(=O)on(C(=O)N(c2ccc(Cl)cc2)C(C)C)c1=O (racemic) ?
2

====

- Test system: morningglory
- Method description: Test B pre/postemergence morningglory
- Type: in vivo, Ipomoea hederacea
- Run conditions: Preemergence, Rate 125 g/ha; scale 0 to 10 (0 no effect, 10 complete control)
Value kind: Plant response rating, Morningglory
Numbers only.

// solved cases for Plant response rating, Morningglory follow
Smiles	Plant response rating, Morningglory
Cc1nn(C)c(Cl)c1-n1c(=O)on(C(=O)N(c2ccc(F)cc2F)C(C)C)c1=O	0
CCCn1c(=O)on(C(=O)N(c2ccc(F)cc2)C(C)C)c1=O	0
CC(C)N(C(=O)n1oc(=O)n(C2CCCCC2)c1=O)c1ccc(F)cc1F	0
C=CCn1c(=O)on(C(=O)N(c2ccc(Cl)cc2)C(C)C)c1=O	0
CC(C)N(C(=O)n1oc(=O)n(C(C)(C)C)c1=O)c1ccc(Cl)cc1	0

Quick check: Plant response rating, Morningglory of Cc1ccccc1Cn1c(=O)on(C(=O)N(c2ccc(F)cc2F)C(C)C)c1=O ?
0

====

- Tested on: guineagrass
- Method description: Test D guineagrass
- Type: in vivo, Panicum maximum
- Run conditions: Rate 64 g/ha, Preemergence; 0 to 100 scale, 0 no injury, 100 complete control
Value kind: Plant response rating, Guineagrass
Give bare numbers.

Smiles	Plant response rating, Guineagrass
Cc1cccc(C)c1-n1c(=O)on(C(=O)N(c2ccc(F)cc2)C(C)C)c1=O	30
CC(C)N(C(=O)n1oc(=O)n(C(C)C)c1=O)c1ccc(F)cc1	100
C=CCn1c(=O)on(C(=O)N(c2ccc(F)cc2F)C(C)C)c1=O	100

Turning to the following compound.
Enter reported Plant response rating, Guineagrass observed with guineagrass for CCn1c(=O)on(C(=O)N(c2ccccc2)C(C)C)c1=O
100

====

- Test system: cocklebur
- Method description: Test B pre/postemergence cocklebur
- Assay type: in vivo, Xanthium strumarium
- Run conditions: Rate 250 g/ha, Postemergence; scale of 0 to 10 where 0 is no effect and 10 is complete control
- Description: […] At the same time, these crop and weed species were also treated with postemergence applications of test chemicals formulated in the same manner. […] Treated plants and controls were maintained in a greenhouse for twelve to sixteen days, after which all species were compared to controls and visually evaluated. […]
Kindly state Plant response rating, Cocklebur for each of the entries shown.
One number for each entry.

// solved cases for Plant response rating, Cocklebur follow
Compound	Value measured
CC(C)N(C(=O)n1oc(=O)n(C[Si](C)(C)C)c1=O)c1ccccc1	0
CCOC(=O)C(C)N(C(=O)n1oc(=O)n(C2CCCCC2)c1=O)c1ccc(F)cc1 (centres unmarked)	0
CC(C)N(C(=O)n1oc(=O)n(CC(C)(C)C)c1=O)c1ccc(F)cc1F	1
CCC=CCn1c(=O)on(C(=O)N(c2ccccc2)C(C)C)c1=O	2

Turning to the following compound.
Quick check: Plant response rating, Cocklebur of CC(C)N(C(=O)n1oc(=O)n(CCC2OCCCO2)c1=O)c1ccccc1 ?
0
